Biological target: T1, human ASGR-1 (human, UniProt P07306 1-291)
T1 construct: Stably expressed on CHO-S cells (CHO-S:huASGR-1); The method text says human or mouse ASGR-1 cells were used; also called huASGR-1; hASGR-1
T1 sequence: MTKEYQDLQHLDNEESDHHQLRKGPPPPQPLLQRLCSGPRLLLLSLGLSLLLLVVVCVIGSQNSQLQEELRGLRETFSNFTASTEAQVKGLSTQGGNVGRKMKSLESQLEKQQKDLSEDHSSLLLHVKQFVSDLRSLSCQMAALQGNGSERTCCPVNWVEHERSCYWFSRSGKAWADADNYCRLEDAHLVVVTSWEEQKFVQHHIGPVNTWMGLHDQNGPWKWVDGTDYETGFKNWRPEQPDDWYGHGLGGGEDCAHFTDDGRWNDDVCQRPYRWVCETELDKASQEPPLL
Experiment: FACS ligand blocking on CHO-S ASGR-1 cells; labelled ligand biotin-GalNAc-PAA (synthetic sugar)
READOUT_KIND: % Inhibition (%)
Give just the numeric value; % need not be written.

[
  {
    "BINDER": "7F4 (antibody, V domains shown) VH: QLQLQESGPGLVKPSETLSLTCTVSGGSISRSSYYWGWIRQPPGKGLEWIGNIYYSGATYYNPSLKSRVTISVDTSTNQFSLKLSSVTAADTAVYYCARHSGSWSLDYWGQGTLVTVSS VL: DIQMTQSPSSLSASVGDRVTITCRTSQGIRNDLGWYQQKPGKAPKRLIYAASNLQSGVPSRFSGSGSGTEFTLTISSLQPEDFATYYCLQHSAYPLTFGGGTKVEIK",
    "READOUT_KIND": "% Inhibition",
    "ENDPOINT_VALUE": 30
  }
]

As a next step, examine the binder that follows.
(Q) Need % Inhibition, item 202A3 (antibody, V domains shown) VH: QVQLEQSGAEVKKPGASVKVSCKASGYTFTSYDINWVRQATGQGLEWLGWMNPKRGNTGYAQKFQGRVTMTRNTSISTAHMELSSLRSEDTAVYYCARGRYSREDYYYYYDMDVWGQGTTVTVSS VL: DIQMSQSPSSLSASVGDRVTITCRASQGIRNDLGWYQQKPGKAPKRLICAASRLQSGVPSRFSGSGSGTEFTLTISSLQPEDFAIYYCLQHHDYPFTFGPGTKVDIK
(A) 96

The measured values listed here are drawn from patent US20190248902A1.
